Documented kon across a set of binders
- TARGET_UNDER_TEST: T1, Recombinant human CD123 SP1 ECD-His tag protein (human, UniProt P26951 20-305)
- T1 construct: bought from R&D Systems (#301-R3/CF); biotinylated for some assays; also called rhCD123 SP1; huCD123 ECD SP1
- T1 sequence: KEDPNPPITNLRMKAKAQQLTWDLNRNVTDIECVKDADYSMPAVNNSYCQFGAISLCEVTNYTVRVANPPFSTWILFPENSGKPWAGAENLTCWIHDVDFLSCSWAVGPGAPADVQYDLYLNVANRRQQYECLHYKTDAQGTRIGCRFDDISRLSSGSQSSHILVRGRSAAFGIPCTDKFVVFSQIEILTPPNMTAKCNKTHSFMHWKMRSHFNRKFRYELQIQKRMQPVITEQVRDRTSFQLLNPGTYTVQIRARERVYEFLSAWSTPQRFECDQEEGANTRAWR
- PROTOCOL_DETAILS: SPR ProteOn, captured mAb
Write the value in M⁻¹ s⁻¹ as a bare number.

As a guide, the following entries are already answered.
BINDER	kon (M⁻¹ s⁻¹)
I3RB33 (antibody, IgG1, V domains shown, IgG1) VH: QVQLVQSGAEVKKPGSSVKVSCKASGGTFSSYGISWVRQAPGQGLEWMGGIIPIFGTANYAQKFQGRVTITADESTSTAYMELSSLRSEDTAVYYCARGYWHWNYDYLDYWGQGTLVTVSS VL: EIVLTQSPATLSLSPGERATLSCRASQSVNDWLAWYQQKPGQAPRLLIYGASNRATGIPARFSGSGSGTDFTLTISSLEPEDFAVYYCQQYKRAPYTFGQGTKVEIK	417000
I3RB30 (antibody, IgG1, V domains shown, IgG1; also called 13RB30) VH: QVQLVQSGAEVKKPGSSVKVSCKASGGTFSSYAISWVRQAPGQGLEWMGWIIPIFGTANYAQKFQGRVTITADESTSTAYMELSSLRSEDTAVYYCARLVYSSDFDYWGQGTLVTVSS VL: EIVLTQSPATLSLSPGERATLSCRASQSVANWLAWYQQKPGQAPRLLIYYASNRATGIPARFSGSGSGTDFTLTISSLEPEDFAVYYCQQYDGWPRTFGQGTKVEIK	725000
I3RB29 (antibody, IgG1, V domains shown, IgG1) VH: QVQLVQSGAEVKKPGSSVKVSCKASGGTFSSYAISWVRQAPGQGLEWMGGIIPIFGTANYAQKFQGRVTITADESTSTAYMELSSLRSEDTAVYYCARDSRIWSFSLDYWGQGTLVTVSS VL: DIQMTQSPSSLSASVGDRVTITCRASQSIGEWLNWYQQKPGKAPKLLIYAASSLQSGVPSRFSGSGSGTDFTLTISSLQPEDFATYYCQQYYHFPLTFGQGTKVEIK	224000
I3RB34 (antibody, IgG1, V domains shown, IgG1; also called 13RB34) VH: QVQLVQSGAEVKKPGSSVKVSCKASGGTFSSYAISWVRQAPGQGLEWMGGIIPIFGTANYAQKFQGRVTITADESTSTAYMELSSLRSEDTAVYYCARGWSYYRLDYWGQGTLVTVSS VL: EIVLTQSPATLSLSPGERATLSCRASQSVDKWLAWYQQKPGQAPRLLIYYASNRATGIPARFSGSGSGTDFTLTISSLEPEDFAVYYCQQFDRAPFTFGQGTKVEIK	497000

As a next step, examine the binder that follows.
Query: Report kon for I3RB22 (antibody, IgG1, V domains shown, IgG1) VH: QVQLVQSGAEVKKPGSSVKVSCKASGGTFSSYAISWVRQAPGQGLEWMGGIIPIFGTANYAQKFQGRVTITADESTSTAYMELSSLRSEDTAVYYCARNLFYWADSVYLDYWGQGTLVTVSS VL: EIVLTQSPATLSLSPGERATLSCRASQSVNKWLAWYQQKPGQAPRLLIYYASNRATGIPARFSGSGSGTDFTLTISSLEPEDFAVYYCQQGIDWPRTFGQGTKVEIK please.
Result: 257000

Where these numbers come from: patent US20160068605A1
